- assayedSystem: T1, IFN-αC (human, UniProt P01566 24-189)
- T1 construct: Recombinant, HEK293; also called IFN-α10
- experimentalProtocol: ProteOn SPR, cell supernatant;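 also: each binding measurement used just a single antigen concentration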
Recorded pKd for the following binders
In textbook form, pKd equals minus log to base ten of the concentration in mol/L.

binder	pKd
IFWM3418 (antibody, IgG1, V domains shown, mAb; IgG1/kappa said of the parent and of selected mAbs; also called IFWB3153) VH: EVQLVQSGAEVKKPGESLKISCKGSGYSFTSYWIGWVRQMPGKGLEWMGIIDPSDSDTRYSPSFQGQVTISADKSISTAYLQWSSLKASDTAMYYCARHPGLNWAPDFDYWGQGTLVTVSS VL: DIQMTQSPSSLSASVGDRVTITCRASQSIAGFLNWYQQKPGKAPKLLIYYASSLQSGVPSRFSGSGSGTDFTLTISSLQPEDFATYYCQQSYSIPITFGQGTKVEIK	9.72
IFWM3413 (antibody, IgG1, V domains shown, mAb; IgG1/kappa said of the parent and of selected mAbs; also called IFWB3148) VH: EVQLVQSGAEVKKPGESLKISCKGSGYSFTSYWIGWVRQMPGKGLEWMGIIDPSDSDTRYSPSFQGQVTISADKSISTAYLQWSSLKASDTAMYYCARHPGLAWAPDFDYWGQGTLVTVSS VL: DIQMTQSPSSLSASVGDRVTITCRASQSINYLNWYQQKPGKAPKLLIYGASSLQSGVPSRFSGSGSGTDFTLTISSLQPEDFATYYCQQSHDWPITFGQGTKVEIK	10.43

Entry IFWM3392 (antibody, IgG1, V domains shown, mAb; IgG1/kappa said of the parent and of selected mAbs; also called IFWB3127) VH: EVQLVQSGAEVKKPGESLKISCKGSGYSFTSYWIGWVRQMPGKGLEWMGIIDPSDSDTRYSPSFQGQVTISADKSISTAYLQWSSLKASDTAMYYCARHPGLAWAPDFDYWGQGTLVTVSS VL: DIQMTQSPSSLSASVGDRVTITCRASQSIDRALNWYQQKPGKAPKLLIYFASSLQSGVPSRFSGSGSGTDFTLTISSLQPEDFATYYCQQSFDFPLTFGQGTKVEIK , pKd reported as 10.80
